Every entry's value here was drawn from PubChem BioAssay (NCATS).

protocol: Primary qHTS for inhibitors of nuclear receptor binding SET domain protein 2 (NSD2) in an isogenic RCH-ACV NSD2 p.E1099K mutant (9B) (AID 1645876); further: nearly all actives have a fitted effect of over 70% in size; on activity change, negative = viability loss: on the % scale 0 is the no-effect control and ±100 the full control effect
condition.info: RCH-ACV (leukaemia line) NSD2 E1099K (9B) viability, CellTiter-Glo, 72 h; series mostly up to 44.9 µM
Records with an inconclusive call do not appear. Active and inactive are the calls of the source. The call rests on the fitted dose curve; in most records, active means well fitted inhibition curve with a large enough effect; inconclusive means small, poorly fitted or top-dose-only effect; inactive means flat fitted curve, though single readings scatter.
result.type: activity change, negative = viability loss

Below, each entry is followed by its recorded activity change, negative = viability loss result.
compound: CC(=O)O[C@@H]1[C@H](O[C@@H]2OC[C@](O)(CO)[C@H]2O)[C@@H](O[C@@H]2O[C@@H](C)[C@H](O)[C@@H](O)[C@H]2O)[C@H](OC(=O)[C@]23CCC(C)(C)C[C@H]2C2=CCC4[C@@]5(C)C[C@H](O)[C@H](O[C@@H]6O[C@H](C(=O)O)[C@@H](O)[C@H](O)[C@H]6O)[C@@](C)(C(=O)O)C5CC[C@@]4(C)[C@]2(C)CC3)O[C@@H]1C (stereo not given in full)
endpoint.value: -7.7% [at 9.23 µM] (inactive)
//
compound: COc1c(C)c2c(c(O)c1C/C=C(\C)CC/C=C(\C)CCC(=O)O)C(=O)OC2
endpoint.value: inactive
//
compound: CC(/C=C/[C@]1(O)[C@@]2(C)CO[C@@]1(C)C[C@@H](O)C2)=C\C(=O)O[C@@H]1O[C@H](CO)[C@@H](O)[C@H](O)[C@H]1O
endpoint.value: inactive
//
compound: C[C@@]12C[C@]3(O)O[C@H](O1)[C@]1(COC(=O)c4ccccc4)[C@H]3C[C@@]12O[C@@H]1O[C@H](COC(=O)c2ccccc2)[C@@H](O)[C@H](O)[C@H]1O
endpoint.value: inactive

Now examine the next entry.
# get_value(readout='activity change, negative = viability loss', item= "Cc1cc(C)cc(NC(=O)Cc2ccc(OC(C)(C)C(=O)O)cc2)c1" )
inactive
